Each entry below lists one item and its recorded decrease of EGFP signal value.
target: p/CIP-EGFP fusion (nuclear receptor coactivator 3, mouse); test: compounds lowering mouse p/CIP (NCOA3) protein levels – fluorescence, F442A cells, EGFP fusion, primary screen (AID 1984); details: 16 h, at 10 µM, active compounds read high
Hit rate of the full screen: of about 290,000 compounds, about 35 (0.01%) were called active. The full list was thinned out, with actives kept by preference.
Write the number in % without appending the unit.

Example entries and their recorded answers appear below.
• CC(C)C(C(=O)NCc1ccco1)N(CC1CCCO1)C(=O)CNS(=O)(=O)c1ccc(F)cc1 (stereo unspecified) = -1.5
• O=C(Nc1ccc(C(=O)O)cc1)/C(=C\c1ccccc1)NC(=O)c1ccc(Br)cc1 = -17.7
• C=CCSc1nnc(N2C(=O)C(O)=C(C(=O)c3ccco3)C2c2ccc(F)cc2)s1 (stereo unspecified) = -15.4
• CCCOc1ccc(Cc2c(O)nc(N)[nH]c2=O)cc1C = -10.4
• CC1(C)C=C2[C@H]3CC[C@@H]4[C@@]5(C)CCC(=O)C(C)(C)[C@@H]5CC[C@@]4(C)[C@]3(C)CC[C@@]2(C(=O)O)CC1 = -6.3

Next item in the queue.
// sample NC(=O)CC(NC(=O)Cc1ccc(Br)cc1)c1ccc(NC2CC3CCC2C3)c([N+](=O)[O-])c1 (stereo unspecified) , its decrease of EGFP signal was 3.9
